PROPERTY_MEASURED: melting point

INSERT INTO measurements (compound, property_measured, measured_value) VALUES
  ('NC(=O)C1CCCN(c2ccc(F)cc2NC(=O)NC(=O)c2cc(F)c(F)cc2Cl)C1 (stereo not drawn) [Example 15c]', 'melting point', '216 °C'),
  ('O=C(NC(=O)c1cc(F)c(F)cc1Cl)Nc1cc(F)ccc1N1CCC(C(=O)[O-])CC1.[Na+]', 'melting point', '160.9 °C'),
  ('CNc1nn(-c2ccc(NC(=O)NC(=O)c3ccc(F)cc3Cl)c(C)c2)c(=O)o1', 'melting point', '198 °C'),
  ('O=C(NC(=O)c1cc(F)c(F)cc1Cl)Nc1ccccc1-c1nnco1', 'melting point', '199.6 °C'),
  ('O=C(NC(=O)c1cc(F)c(F)cc1Cl)Nc1ccccc1-c1nnc(O)o1', 'melting point', '222.9 °C'),
  ('O=C(NC(=O)c1ccc(F)cc1Cl)Nc1ccccc1-c1nnco1', 'melting point', '204 °C'),
  ('O=C(NC(=O)c1ccc(F)cc1Cl)Nc1ccccc1-c1nnc(O)o1', 'melting point', '229.7 °C'),
  ('COc1cc(-c2nnc(O)o2)ccc1NC(=O)NC(=O)c1cc(F)c(F)cc1Cl', 'melting point', '293.1 °C');

Consider the record given below.
Form field: reported melting point of O=C(NC(=O)c1ccc(F)cc1Cl)Nc1ccc(-c2noc(=O)[nH]2)cc1Cl [Example 11f]
243.6 °C

---

# MEASURED_ON: human glycogen phosphorylase a (Homo sapiens)
# PROTOCOL_DESCRIPTION: Glycogen phosphorylase a activity test (reverse direction, release of inorganic phosphate)
# Format: biochemical
# CONDITION_DETAILS: 10 μM test substance; duplicate determinations; 40 min at room temperature
Label scheme for % inhibition at 10 μM: lower than 1% is class 0, 1% and above is class 1.

Known results for molecules:
INSERT INTO results (molecule, category_label) VALUES
  ('O=C(NC(=O)c1cc(F)c(F)cc1Cl)Nc1cc(-c2nnc[nH]2)ccc1Cl [Example 6e]', 'class 1'),
  ('CNc1nn(-c2ccc(NC(=O)NC(=O)c3ccc(F)cc3Cl)c(C)c2)c(=O)o1 [Example 9f]', 'class 1'),
  ('COc1cc(-c2nnc(CC(=O)O)[nH]2)ccc1NC(=O)NC(=O)c1ccc(F)cc1Cl [Example 4d]', 'class 1');

Does % inhibition at 10 μM meet or surpass 1% for O=C(NC(=O)c1ccc(F)cc1Cl)Nc1cc(C(F)(F)F)ccc1N1CCCC(C(=O)O)C1 (centres unmarked) [Example 24] ?
class 0

How about this molecule: CS(=O)(=O)c1ccc(N2CCCC(C(=O)O)C2)c(NC(=O)NC(=O)c2cc(F)c(F)cc2Cl)c1 (centres unmarked) [Example 21]
class 0

How about this molecule: COc1cc(-c2nnc(C)[nH]2)ccc1NC(=O)NC(=O)c1ccc(F)cc1Cl [Example 2c]
class 1

How about this molecule: Cc1nnc(-c2ccc(Cl)c(NC(=O)NC(=O)c3cc(F)c(F)cc3Cl)c2)nc1C [Example 14f]
class 1

---

Quick reference for % inhibition at 10 μM among some molecules
# MEASURED_ON: human glycogen phosphorylase a (Homo sapiens, UniProt P06737)
# Sequence (P06737 2-847 limits assumed): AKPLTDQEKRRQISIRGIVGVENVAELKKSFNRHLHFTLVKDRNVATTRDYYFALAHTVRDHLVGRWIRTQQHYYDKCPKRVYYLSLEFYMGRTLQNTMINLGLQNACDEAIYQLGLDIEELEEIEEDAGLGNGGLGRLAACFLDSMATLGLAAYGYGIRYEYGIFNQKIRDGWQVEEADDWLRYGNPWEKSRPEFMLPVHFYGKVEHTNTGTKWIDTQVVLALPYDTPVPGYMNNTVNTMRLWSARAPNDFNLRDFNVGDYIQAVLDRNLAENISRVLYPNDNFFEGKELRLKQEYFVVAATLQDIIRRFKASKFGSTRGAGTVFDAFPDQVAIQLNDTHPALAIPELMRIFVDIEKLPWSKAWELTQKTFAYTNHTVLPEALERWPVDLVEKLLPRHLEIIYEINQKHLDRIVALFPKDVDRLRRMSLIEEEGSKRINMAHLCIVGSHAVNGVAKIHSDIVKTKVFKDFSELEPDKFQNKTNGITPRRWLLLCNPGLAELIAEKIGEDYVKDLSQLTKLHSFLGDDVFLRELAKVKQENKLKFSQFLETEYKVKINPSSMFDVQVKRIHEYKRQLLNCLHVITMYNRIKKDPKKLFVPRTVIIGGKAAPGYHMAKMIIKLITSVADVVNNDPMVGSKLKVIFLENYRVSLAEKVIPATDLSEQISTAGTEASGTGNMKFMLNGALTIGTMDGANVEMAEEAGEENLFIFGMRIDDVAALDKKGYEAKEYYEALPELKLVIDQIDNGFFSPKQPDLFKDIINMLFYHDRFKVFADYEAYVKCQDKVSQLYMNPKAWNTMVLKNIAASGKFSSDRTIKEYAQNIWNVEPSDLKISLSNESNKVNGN
# PROTOCOL_DESCRIPTION: Glycogen phosphorylase a activity test (reverse direction, release of inorganic phosphate)
# Assay type: biochemical
# CONDITION_DETAILS: 10 μM test substance; duplicate determinations; 40 min at room temperature

Below are worked cases with known answers.
INSERT INTO assay_data (molecule, measured_value) VALUES
  ('O=C(NC(=O)c1ccc(F)cc1Cl)Nc1ccccc1-c1ccc(C(=O)O)o1 [Example 13c]', '100%'),
  ('COc1cc(-c2nnc(O)o2)ccc1NC(=O)NC(=O)c1ccc(F)cc1Cl', '96%'),
  ('CCOC(=O)C1CCCN(c2ccc(F)cc2NC(=O)NC(=O)c2ccc(F)cc2Cl)C1 (centres unmarked)', '0.3%');

Form field: reported % inhibition at 10 μM of Cc1nnc(-c2ccccc2NC(=O)NC(=O)c2cc(F)c(F)cc2Cl)n1-c1ccccc1C(=O)O
9%

How about this molecule: Cc1cc(=O)n(-c2ccc(NC(=O)NC(=O)c3ccc(F)cc3Cl)c(C)c2)[nH]1 [Example 12c]
85%

How about this molecule: O=C(NC(=O)c1cc(F)c(F)cc1Cl)Nc1ccccc1-c1nnc(O)o1
99%

How about this molecule: COc1nn(-c2ccc(NC(=O)NC(=O)c3ccc(F)cc3Cl)c(OC)c2)c(=O)o1
20%

How about this molecule: COC(=O)C1CCN(c2ccc(S(C)(=O)=O)cc2NC(=O)NC(=O)c2cc(F)c(F)cc2Cl)CC1
0.05%

How about this molecule: Cc1ccc(NC(=O)NC(=O)c2cc(F)c(F)cc2Cl)c(N2CCCC(C(=O)O)C2)c1 (centres unmarked)
0.04%

How about this molecule: Cc1ccc(N2CCCC(C(=O)O)C2)c(NC(=O)NC(=O)c2ccc(F)cc2Cl)c1 (centres unmarked)
0.04%

How about this molecule: O=C(NC(=O)c1ccc(F)cc1Cl)Nc1ccc(-c2noc(=O)[nH]2)cc1Cl [Example 11f]
98%

How about this molecule: CS(=O)(=O)c1ccc(N2CCCC(C(=O)O)C2)c(NC(=O)NC(=O)c2ccc(F)cc2Cl)c1 (centres unmarked)
1.1%

How about this molecule: Nc1nnc(-c2ccccc2NC(=O)NC(=O)c2cc(F)c(F)cc2Cl)o1 [Example 10c]
100%

How about this molecule: O=C(NC(=O)c1cc(F)c(F)cc1Cl)Nc1ccc(-c2n[nH]c(O)n2)cc1OC(F)(F)F
98%

---

# MEASURED_ON: human glycogen phosphorylase a (Homo sapiens)
# PROTOCOL_DESCRIPTION: Glycogen phosphorylase a activity test (reverse direction, release of inorganic phosphate)
# Assay type: biochemical
# CONDITION_DETAILS: 10 μM test substance; duplicate determinations; 40 min at room temperature
PROPERTY_MEASURED: % inhibition at 10 μM (%)
Dear colleague, please return just the value in %, with no unit written.

INSERT INTO measurements (compound, measured_on, measure_unit, measured_value) VALUES
  ('CCOC(=O)C1CCCN(c2ccc(F)cc2NC(=O)NC(=O)c2cc(F)c(F)cc2Cl)C1 (stereo not drawn)', 'human glycogen phosphorylase a (Homo sapiens)', '%', 0.3),
  ('COC(=O)C1CCN(c2ccc(F)cc2NC(=O)NC(=O)c2ccc(F)cc2Cl)CC1', 'human glycogen phosphorylase a (Homo sapiens)', '%', 4.6);

Consider the record given below.
Return % inhibition at 10 μM measured with human glycogen phosphorylase a (Homo sapiens) given this compound: O=C(NC(=O)c1ccc(F)cc1Cl)Nc1ccc(-c2nnn[nH]2)cc1Cl
100
